test system: Human immunodeficiency virus 1; assay: Antiviral activity against drug-resistant HIV-1 harboring RT RES056 mutant infected in human MT4 cells assessed as protection against virus-induced cytopathicity measured after 5 days post-infection by MTT assay; assay type: functional, organism-based; conditions: Human immunodeficiency virus 1, MT4, 120 h
pEC50: −log10 of the molar value.
Consider the following compounds and their measured pEC50 readings.

[
  {
    "compound": "[2H]C([2H])([2H])c1cc(C#N)cc(C([2H])([2H])[2H])c1Oc1nc(NC2CCN(Cc3ccc(C(N)=O)cc3)CC2)nc2ccsc12",
    "target desc": "Human immunodeficiency virus 1",
    "bound operator": "=",
    "pEC50": 5.76
  },
  {
    "compound": "[2H]C([2H])([2H])c1cc(C#N)cc(C([2H])([2H])[2H])c1Oc1nc(NC2CCN(Cc3ccc(S(N)(=O)=O)cc3)CC2)nc2ccccc12",
    "target desc": "Human immunodeficiency virus 1",
    "bound operator": "=",
    "pEC50": 6.56
  },
  {
    "compound": "[2H]C([2H])([2H])c1cc(/C=C/C#N)cc(C([2H])([2H])[2H])c1Nc1ccnc(Nc2ccc(C#N)cc2)n1",
    "target desc": "Human immunodeficiency virus 1",
    "bound operator": "=",
    "pEC50": 7.88
  },
  {
    "compound": "[2H]C([2H])([2H])c1cc(-c2ccc(C#N)cc2)cc(C)c1Nc1ccnc(Nc2ccc(C#N)cc2)n1",
    "target desc": "Human immunodeficiency virus 1",
    "bound operator": "=",
    "pEC50": 7.23
  },
  {
    "compound": "Cc1cc(-c2ccc(C#N)cc2)cc(C)c1Nc1ccnc(Nc2ccc(C#N)cc2)n1",
    "target desc": "Human immunodeficiency virus 1",
    "bound operator": "=",
    "pEC50": 7.27
  },
  {
    "compound": "Cc1ccnc2c1NC(=O)c1cccnc1N2C1CC1 [NEVIRAPINE]",
    "target desc": "Human immunodeficiency virus 1",
    "bound operator": "<",
    "pEC50": 4.82
  },
  {
    "compound": "[2H]C([2H])([2H])c1cc(C#N)cc(C([2H])([2H])[2H])c1Oc1nc(NC2CCN(Cc3ccc(C(N)=O)cc3)CC2)nc2scnc12",
    "target desc": "Human immunodeficiency virus 1",
    "bound operator": "=",
    "pEC50": 6.78
  },
  {
    "compound": "[2H]C([2H])([2H])c1cc(C#N)cc(C([2H])([2H])[2H])c1Oc1nc(NC2CCN(Cc3ccc(C(N)=O)cc3)CC2)nc2ccccc12",
    "target desc": "Human immunodeficiency virus 1",
    "bound operator": "=",
    "pEC50": 5.86
  },
  {
    "compound": "[2H]C([2H])([2H])c1cc(C#N)cc(C([2H])([2H])[2H])c1Oc1nc(NC2CCN(Cc3ccc(S(N)(=O)=O)cc3)CC2)nc2scnc12",
    "target desc": "Human immunodeficiency virus 1",
    "bound operator": "=",
    "pEC50": 7.06
  },
  {
    "compound": "[2H]C([2H])([2H])c1cc(C#N)cc(C)c1Oc1nc(NC2CCN(Cc3ccc(C(N)=O)cc3)CC2)nc2ccsc12",
    "target desc": "Human immunodeficiency virus 1",
    "bound operator": "=",
    "pEC50": 6.05
  },
  {
    "compound": "[2H]C([2H])([2H])c1cc(C#N)cc(C)c1Oc1nc(NC2CCN(Cc3ccc(C(N)=O)cc3)CC2)nc2sccc12",
    "target desc": "Human immunodeficiency virus 1",
    "bound operator": "=",
    "pEC50": 6.49
  },
  {
    "compound": "[2H]C([2H])([2H])c1cc(C#N)cc(C)c1Oc1nc(NC2CCN(Cc3ccc(S(N)(=O)=O)cc3)CC2)nc2sccc12",
    "target desc": "Human immunodeficiency virus 1",
    "bound operator": "=",
    "pEC50": 6.83
  },
  {
    "compound": "Cc1cc(/C=C/C#N)cc(C)c1Nc1ccnc(Nc2ccc(C#N)cc2)n1 [RILPIVIRINE]",
    "target desc": "Human immunodeficiency virus 1",
    "bound operator": "=",
    "pEC50": 7.91
  },
  {
    "compound": "[2H]C([2H])([2H])c1cc(/C=C/C#N)cc(C)c1Nc1ccnc(Nc2ccc(C#N)cc2)n1",
    "target desc": "Human immunodeficiency virus 1",
    "bound operator": "=",
    "pEC50": 7.89
  },
  {
    "compound": "[2H]C([2H])([2H])c1cc(C#N)cc(C([2H])([2H])[2H])c1Oc1nc(NC2CCN(Cc3ccc(S(N)(=O)=O)cc3)CC2)nc2ccsc12",
    "target desc": "Human immunodeficiency virus 1",
    "bound operator": "=",
    "pEC50": 7.12
  },
  {
    "compound": "[2H]C([2H])([2H])c1cc(C#N)cc(C)c1Oc1nc(NC2CCN(Cc3ccc(S(N)(=O)=O)cc3)CC2)nc2ccsc12",
    "target desc": "Human immunodeficiency virus 1",
    "bound operator": "=",
    "pEC50": 6.66
  },
  {
    "compound": "[2H]C([2H])([2H])c1cc(C#N)cc(C)c1Oc1nc(NC2CCN(Cc3ccc(C(N)=O)cc3)CC2)nc2ccccc12",
    "target desc": "Human immunodeficiency virus 1",
    "bound operator": "=",
    "pEC50": 5.74
  },
  {
    "compound": "[2H]C([2H])([2H])c1cc(C#N)cc(C([2H])([2H])[2H])c1Oc1nc(NC2CCN(Cc3ccc(C(N)=O)cc3)CC2)nc2sccc12",
    "target desc": "Human immunodeficiency virus 1",
    "bound operator": "=",
    "pEC50": 6.30
  },
  {
    "compound": "[2H]C([2H])([2H])c1cc(C#N)cc(C([2H])([2H])[2H])c1Oc1nc(NC2CCN(Cc3ccc(S(N)(=O)=O)cc3)CC2)nc2sccc12",
    "target desc": "Human immunodeficiency virus 1",
    "bound operator": "=",
    "pEC50": 6.85
  },
  {
    "compound": "[2H]C([2H])([2H])c1cc(C#N)cc(C)c1Oc1nc(NC2CCN(Cc3ccc(C(N)=O)cc3)CC2)nc2scnc12",
    "target desc": "Human immunodeficiency virus 1",
    "bound operator": "=",
    "pEC50": 6.84
  }
]
